TARGET_UNDER_TEST: human CSNK1D tagged with nanoluciferase (Homo sapiens (Human), UniProt P48730)
Sequence (P48730 whole entry): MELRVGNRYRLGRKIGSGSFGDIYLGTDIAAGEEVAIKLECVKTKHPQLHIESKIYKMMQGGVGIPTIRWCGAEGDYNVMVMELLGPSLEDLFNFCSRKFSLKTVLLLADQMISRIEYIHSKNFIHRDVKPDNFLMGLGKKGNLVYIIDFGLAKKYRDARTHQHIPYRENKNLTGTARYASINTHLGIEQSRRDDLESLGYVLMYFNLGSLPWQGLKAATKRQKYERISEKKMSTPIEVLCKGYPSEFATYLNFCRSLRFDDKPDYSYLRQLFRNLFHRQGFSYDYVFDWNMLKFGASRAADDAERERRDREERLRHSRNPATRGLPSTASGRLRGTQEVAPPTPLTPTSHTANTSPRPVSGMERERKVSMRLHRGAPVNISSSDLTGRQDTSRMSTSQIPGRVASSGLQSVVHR
TEST_NAME: Whole Cell nBRET CSNK1D Binding Assay
CONDITIONS: living CHO cells stably expressing human CSNK1D-nanoluciferase; NanoBret tracer 130 nM; 2 hours 37° C.; read-out: CSNK1D BRET IC50
OUTCOME_MEASURE: IC50 (µM)

• Cn1cc(-c2ccnc3cc(F)ccc23)c(-c2ccc(F)cn2)n1 [Example 106] = 0.564

[A] Cn1cc(-c2ccnc3[nH]ncc23)c(-c2ccc(F)cn2)n1 [Example 98]
[B] Cc1cc(-c2cn(C)nc2-c2ccc(F)c(C)n2)c2cn[nH]c2n1 [Example 40]
## Task Given A and given B , which shows the smaller recorded IC50? I would appreciate it if you answered with the label of your choice.
## Result B
(B: 0.288 µM, A: 2.35 µM)

---

TARGET_UNDER_TEST: human recombinant GST cleaved CSNK1D (Homo sapiens (Human))
TEST_NAME: Purified enzyme assay (ADP-Glo Kinase Assay)
Format: biochemical
CONDITIONS: 2 nM CSNK1D, peptide substrate 150 μM, ATP 20 μM, 45 minutes room temperature
OUTCOME_MEASURE: AC50 (nM)

Examples from the recorded data:
• Fc1ccc(-c2nn(C(F)F)cc2-c2ccnc3[nH]ncc23)nc1 = 526
• Cn1cc(-c2ccnc3cccnc23)c(-c2ccc(F)cn2)n1 = 26
• Cc1csc2c(-c3cn(C)nc3-c3ccc(F)cn3)ccnc12 = 361
• Cc1ccc(-c2nn(C)cc2-c2ccnc3[nH]ccc23)nc1 = 50
• Cc1c[nH]c2nccc(-c3cn(C)nc3-c3ccc(F)cn3)c12 = 6

[A] Fc1ccc(-c2nn(C(F)F)cc2-c2ccnc3[nH]ccc23)nc1
[B] Cn1cc(-c2ccnc3[nH]ncc23)c(-c2ccc(Cl)cn2)n1
[C] Cn1cc(-c2ccnc3[nH]ccc23)c(-c2cncc(F)c2)n1
## Task List items by AC50 in falling order. Write the labels in rank order as requested.
## Result B, A, C

---

TARGET_UNDER_TEST: human CSNK1D tagged with nanoluciferase (Homo sapiens (Human))
TEST_NAME: Whole Cell nBRET CSNK1D Binding Assay
CONDITIONS: living CHO cells stably expressing human CSNK1D-nanoluciferase; NanoBret tracer 130 nM; 2 hours 37° C.; read-out: CSNK1D BRET IC50
pIC50: −log10 of the molar value.
OUTCOME_MEASURE: pIC50

Examples from the recorded data:
* Cn1cc(-c2ccnc3[nH]ccc23)c(-c2ncc(F)cc2F)n1 | 7.11
* CCn1cc(-c2ccnc3[nH]ccc23)c(-c2ccc(F)cn2)n1 | 7.03
* COc1ccc2nccc(-c3cn(C)nc3-c3ccc(F)cn3)c2n1 | 6.83
* CCn1ncc2cc(-c3cn(C)nc3-c3ccc(F)cn3)cnc21 | 5.80
* COc1cccc(-c2nn(C)cc2-c2cc(C)nc3[nH]ncc23)n1 | 5.70
* Cn1cc(-c2c(CC#N)cnc3[nH]ccc23)c(-c2ccc(F)cn2)n1 | 5.14
* Cn1cc(-c2ccnc3[nH]c(C4COC4)cc23)c(-c2ccc(F)cn2)n1 | 6.74
* Cc1cc(-c2cn(C(C)C)nc2-c2ccc(F)cn2)c2cn[nH]c2n1 | 6.43
* CC(C)n1cc(-c2ccnc3[nH]ccc23)c(-c2ccc(F)cn2)n1 | 7.01
* COCCn1cc(-c2cc(C)nc3[nH]ncc23)c(-c2ccc(F)cn2)n1 | 6.41

[a] Cn1cc(-c2ccnc3[nH]ccc23)c(-c2ccncc2)n1
[b] Cn1cc(-c2ccnc(NC(=O)C3CC3)c2)c(-c2ccc(F)cn2)n1
## Task Given a and given b , which shows the smaller recorded pIC50? I would appreciate it if you answered with the label of your choice.
## Result a

---

TARGET_UNDER_TEST: human recombinant GST cleaved CSNK1D (Homo sapiens (Human), UniProt P48730)
TEST_NAME: Purified enzyme assay (ADP-Glo Kinase Assay)
Assay type: biochemical
CONDITIONS: 2 nM CSNK1D, peptide substrate 150 μM, ATP 20 μM, 45 minutes room temperature
OUTCOME_MEASURE: AC50 (nM)

• COc1ncc(-c2nn(C)cc2-c2cc(C)nc3[nH]ncc23)cc1C [Example 141] = 44
• FCCn1cc(-c2ccnc3[nH]ccc23)c(-c2ccc(F)cn2)n1 [Example 68] = 4
• Cc1c(-c2ccnc3[nH]ccc23)c(-c2ccc(F)cn2)nn1C [Example 51] = 5
• Cn1cc(-c2ccnc3ccc(F)nc23)c(-c2ccc(F)cn2)n1 [Example 127] = 46
• Cc1cc(-c2cn(C)nc2-c2c(C)cncc2F)c2cn[nH]c2n1 [Example 140] = 1170
• COc1ccc2ncc(F)c(-c3cn(C)nc3-c3ccc(F)cn3)c2n1 [Example 156] = 52

[I] Cc1cc(-c2cn(CC3COC3)nc2-c2ccc(F)cn2)c2cn[nH]c2n1 [Example 50]
[II] Cn1cc(-c2ccnc3[nH]ccc23)c(-c2cscn2)n1 [Example 13]
## Task Given I and given II , which shows the smaller recorded AC50? I would appreciate it if you answered with the label of your choice.
## Result I
(I: 5 nM, II: 28 nM)

---

TARGET_UNDER_TEST: human CSNK1D tagged with nanoluciferase (Homo sapiens (Human), UniProt P48730)
TEST_NAME: Whole Cell nBRET CSNK1D Binding Assay
CONDITIONS: living CHO cells stably expressing human CSNK1D-nanoluciferase; NanoBret tracer 130 nM; 2 hours 37° C.; read-out: CSNK1D BRET IC50
OUTCOME_MEASURE: IC50 (nM)

- Cn1cc(-c2ccnc3[nH]c(C4(O)COC4)cc23)c(-c2ccc(F)cn2)n1 [Example 94]: 187

[1] COc1ccc2nccc(-c3cn(C)nc3-c3ccc(F)cn3)c2c1 [Example 129]
[2] Cc1ccc(-c2nn(C)cc2-c2ccnc3[nH]ncc23)nc1 [Example 32]
## Task Given 1 and given 2 , which shows the smaller recorded IC50? I would appreciate it if you answered with the label of your choice.
## Result 1
(1: 785 nM, 2: 8940 nM)

[P] Cn1cc(-c2ccnc3[nH]ncc23)c(-c2ccc(C(F)F)cn2)n1 [Example 33]
[Q] Cn1cc(-c2nc(C3CC3)nc3[nH]ccc23)c(-c2ccc(F)cn2)n1 [Example 125]
## Task Given P and given Q , which shows the smaller recorded IC50? I would appreciate it if you answered with the label of your choice.
## Result Q

[I] CCOc1ccc2nccc(-c3cn(C)nc3-c3ccc(F)cn3)c2n1 [Example 128]
[II] Cc1cc(-c2cn(C)nc2-c2cncc(Cl)c2)c2cn[nH]c2n1 [Example 139]
## Task Given I and given II , which shows the smaller recorded IC50? I would appreciate it if you answered with the label of your choice.
## Result I

[P] Cn1cc(-c2c(C#N)cnc3[nH]ccc23)c(-c2ccc(F)cn2)n1 [Example 89]
[Q] Cn1cc(-c2ccnc3[nH]ccc23)c(-c2ccc(F)nc2)n1 [Example 28]
[R] Cn1cc(-c2ccnc3[nH]cc(C4COC4)c23)c(-c2ccc(F)cn2)n1 [Example 93]
[S] Cc1cc(-c2nn(C)cc2-c2cc(C)nc3[nH]ncc23)ccn1 [Example 135]
## Task List items by IC50 in falling order. Write the labels in rank order as requested.
## Result S, R, Q, P

[A] FCCn1cc(-c2ccnc3[nH]ccc23)c(-c2ccc(F)cn2)n1 [Example 68]
[B] Cn1cc(-c2ccnc3[nH]ccc23)c(-c2ncco2)n1 [Example 7]
[C] CC(C)c1cc2c(-c3cn(C)nc3-c3ccc(F)cn3)ccnc2[nH]1 [Example 83]
## Task List items by IC50 in falling order. Write the labels in rank order as requested.
## Result C, B, A

---

TARGET_UNDER_TEST: human recombinant GST cleaved CSNK1D (Homo sapiens (Human), UniProt P48730)
TEST_NAME: Purified enzyme assay (ADP-Glo Kinase Assay)
Assay type: biochemical
CONDITIONS: 2 nM CSNK1D, peptide substrate 150 μM, ATP 20 μM, 45 minutes room temperature
Structures can show the parent of a compound that is named as a salt.
OUTCOME_MEASURE: AC50 (nM)

* Cn1cc(-c2ccnc3ccccc23)c(-c2ccc(F)cn2)n1 | 170
* CC(C)Cn1cc(-c2ccnc3[nH]ccc23)c(-c2ccc(F)cn2)n1 | 14
* CC(C)n1cc(-c2ccnc3[nH]ccc23)c(-c2ccc(F)cn2)n1 | 17
* Cc1cc(-c2cn(C)nc2-c2ccncc2Cl)c2cn[nH]c2n1 | 217
* Cc1ccc(-c2nn(C)cc2-c2ccnc3[nH]ccc23)cn1 | 44
* Cc1cc(-c2cn(C)nc2-c2ccc(Cl)c(C)n2)c2cn[nH]c2n1 | 128
* Cn1cc(-c2c(CC#N)cnc3[nH]ccc23)c(-c2ccc(F)cn2)n1 | 75
* Cn1cnc(-c2nn(C)cc2-c2ccnc3[nH]ccc23)c1 | 16
* Cc1cc(-c2nn(C)cc2-c2cc(C)nc3[nH]ncc23)cnn1 | 1540
* Cn1cc(-c2c(C3COC3)cnc3[nH]ccc23)c(-c2ccc(F)cn2)n1 | 19

[1] Cn1cc(-c2ccnc3[nH]ccc23)c(-c2ccsn2)n1
[2] Cn1cc(-c2cc(C(F)F)nc3[nH]ncc23)c(-c2cncc(F)c2)n1
## Task Which item exceeds the other in AC50, 1 or 2 ? I would appreciate it if you answered with the label of your choice.
## Result 2

[a] Cn1cc(-c2ccnc3[nH]ccc23)c(-c2ncco2)n1
[b] Cc1cc(-c2cn(C3COC3)nc2-c2ccc(F)cn2)c2cn[nH]c2n1
## Task Which item exceeds the other in AC50, a or b ? I would appreciate it if you answered with the label of your choice.
## Result a
(a: 38 nM, b: 20 nM)

[1] Cc1cccc(-c2nn(C)cc2-c2cc(C)nc3[nH]ncc23)n1
[2] Cc1nc(-c2cn(C)nc2-c2ccc(F)cn2)c2cc[nH]c2n1 [Example 123, Trifluoroacetate Salt]
## Task Which item exceeds the other in AC50, 1 or 2 ? I would appreciate it if you answered with the label of your choice.
## Result 1
(1: 24 nM, 2: 4 nM)
